Consider the following compounds; for each one, report its Ki.
Protein target, amino acids: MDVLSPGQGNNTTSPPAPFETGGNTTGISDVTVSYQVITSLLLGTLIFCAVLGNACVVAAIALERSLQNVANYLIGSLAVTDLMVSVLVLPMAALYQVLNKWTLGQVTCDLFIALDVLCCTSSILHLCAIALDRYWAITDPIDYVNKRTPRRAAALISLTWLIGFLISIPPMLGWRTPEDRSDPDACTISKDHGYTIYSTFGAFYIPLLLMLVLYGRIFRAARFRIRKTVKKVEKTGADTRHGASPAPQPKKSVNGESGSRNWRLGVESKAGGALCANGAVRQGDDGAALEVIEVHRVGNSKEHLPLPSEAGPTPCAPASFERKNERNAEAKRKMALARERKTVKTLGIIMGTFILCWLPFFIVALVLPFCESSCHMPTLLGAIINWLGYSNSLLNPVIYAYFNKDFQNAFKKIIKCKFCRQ
One number for each entry, in nM.

Look at each compound and report its Ki.
1. FC(F)(F)c1nc2c(N3CCN([C@H]4CC[C@@H](c5c[nH]c6ccccc65)CC4)CC3)cccc2[nH]1
2. FC(F)(F)c1nc2c(N3CCN([C@H]4CC[C@H](c5c[nH]c6ccccc65)CC4)CC3)cccc2[nH]1
3. Fc1ccc2[nH]cc([C@H]3CC[C@@H](N4CCN(c5cccc6ncccc56)CC4)CC3)c2c1
4. c1cc(N2CCN([C@H]3CC[C@H](c4c[nH]c5ccccc54)CC3)CC2)c2nc[nH]c2c1

16.1
3.6
97.2
1.7

Where these numbers come from: ChEMBL document CHEMBL1155057
